- system_tested: Acyl-CoA:cholesterol acyltransferase (Oryctolagus cuniculus, UniProt Q95214)
- test_protocol: In vitro inhibition of ACAT by incubation with [1-14C]oleolyl-CoA and intestinal microsomes isolated from cholesterol-fed rabbits.
observed_property: pIC50
Scale: negative log10 of molar concentration, which is what pIC50 denotes.

Return reported pIC50; argument: CCCCCCCCCCSC(=O)CS(=O)(=O)Nc1c(C(C)C)cccc1C(C)C 6.89

Need pIC50 of CCCCCCCCCCCCSC(=O)CS(=O)(=O)Nc1c(C(C)C)cccc1C(C)C , thanks. 7.14

So what's the measured pIC50 for this one? CC(C)c1cccc(C(C)C)c1OS(=O)(=O)CC(=O)NC(c1ccccc1)c1ccccc1 5.74

Reported pIC50, molecule CC(C)c1cc(C(C)C)c(CC(=O)NP(=O)(Oc2c(C(C)C)cccc2C(C)C)c2ccccc2)c(C(C)C)c1 (centres undefined) : ____ 5.60

What value of measured pIC50 is listed for COP(=O)(Cc1c(C(C)C)cc(C(C)C)cc1C(C)C)NC(=O)Cc1c(C(C)C)cc(C(C)C)cc1C(C)C (centres undefined) ? 6.13

So what does the record say about pIC50 for COP(=O)(Cc1c(C(C)C)cc(C(C)C)cc1C(C)C)NC(=O)Cc1c(C(C)C)cccc1C(C)C (centres undefined) ? 6.54

----------
- system_tested: Acyl-CoA:cholesterol acyltransferase (Oryctolagus cuniculus)
- test_protocol: In vitro inhibition of ACAT by incubation with [1-14C]oleolyl-CoA and intestinal microsomes isolated from cholesterol-fed rabbits.
Assignment: determine reported pIC50 for the given compounds.
Worth noting: pIC50 values are minus log10 of concentrations stated in mol/L.

pIC50 of CC(C)c1cccc(C(C)C)c1NC(=O)CS(=O)(=O)Oc1c(C(C)C)cccc1C(C)C on Acyl-CoA:cholesterol acyltransferase (Oryctolagus cuniculus)? 8.15

Request body: readout pIC50, system Acyl-CoA:cholesterol acyltransferase (Oryctolagus cuniculus), query COP(=O)(NC(=O)Cc1c(C(C)C)cc(C(C)C)cc1C(C)C)Oc1c(C(C)C)cccc1C(C)C (centres undefined) . Return the value. 5.32

# get_value(readout= pIC50, system= Acyl-CoA:cholesterol acyltransferase (Oryctolagus cuniculus)) for CCCCCCCCCCCCCCSC(=O)CS(=O)(=O)Nc1c(C(C)C)cccc1C(C)C 7.44

Checklist item: pIC50 tested on Acyl-CoA:cholesterol acyltransferase (Oryctolagus cuniculus), entry CC(C)c1cccc(C(C)C)c1NS(=O)(=O)CC(=O)N(Cc1ccccc1)C(C)C , value? 6.82

# query: pIC50 | item CCCCCCCCCCCCC(C)OC(=O)CS(=O)(=O)Nc1c(C(C)C)cccc1C(C)C (centres undefined) | system: Acyl-CoA:cholesterol acyltransferase (Oryctolagus cuniculus) 7.68

----------
- system_tested: Acyl-CoA:cholesterol acyltransferase (Oryctolagus cuniculus)
- test_protocol: In vitro inhibition of ACAT by incubation with [1-14C]oleolyl-CoA and intestinal microsomes isolated from cholesterol-fed rabbits.
observed_property: IC50

Query for Acyl-CoA:cholesterol acyltransferase (Oryctolagus cuniculus): what IC50 does the record show for CCCCCCNC(=O)CS(=O)(=O)Nc1c(C(C)C)cccc1C(C)C ? > 5 µM

Reported IC50 for Acyl-CoA:cholesterol acyltransferase (Oryctolagus cuniculus), given CC(C)c1cccc(C(C)C)c1NS(=O)(=O)CC(=O)Sc1c(C(C)C)cccc1C(C)C ? > 50 µM

Look up IC50 with Acyl-CoA:cholesterol acyltransferase (Oryctolagus cuniculus) for this compound: CCCCCCCCCCOC(=O)CS(=O)(=O)Nc1c(C(C)C)cccc1C(C)C > 1 µM

----------
- system_tested: Acyl-CoA:cholesterol acyltransferase (Oryctolagus cuniculus, UniProt Q95214)
- Sequence (Q95214 whole entry): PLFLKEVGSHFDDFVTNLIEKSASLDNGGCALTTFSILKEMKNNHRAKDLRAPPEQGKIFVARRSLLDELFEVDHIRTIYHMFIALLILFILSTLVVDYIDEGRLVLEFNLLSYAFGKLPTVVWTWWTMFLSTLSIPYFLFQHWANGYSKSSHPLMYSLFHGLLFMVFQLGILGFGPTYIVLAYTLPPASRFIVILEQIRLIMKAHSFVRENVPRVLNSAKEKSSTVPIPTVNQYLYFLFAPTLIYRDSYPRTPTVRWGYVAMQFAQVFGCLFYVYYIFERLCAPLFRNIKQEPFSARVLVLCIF
- test_protocol: In vitro inhibition of ACAT by incubation with [1-14C]oleolyl-CoA and intestinal microsomes isolated from cholesterol-fed rabbits.
observed_property: IC50

Name the reported IC50 value associated with the compound CCOC(=O)CS(=O)(=O)Nc1c(C(C)C)cccc1C(C)C > 1000 nM

Which IC50 value belongs to CCCCCCOC(=O)CS(=O)(=O)Nc1c(C(C)C)cccc1C(C)C ? > 1000 nM

If you can, please state the reported IC50 value of COc1cc(OC)c(OC(=O)CS(=O)(=O)Nc2c(C(C)C)cccc2C(C)C)c(OC)c1 . > 1000 nM
